biological target: VEGFR3 cytoplasmic domain (Homo sapiens, UniProt P35916); test: VEGFR3 Biochemical Assay (AlphaScreen); conditions: GST-fusion enzyme, 500 μM ATP, 90 minutes at 30 degree Celsius (modified form in some cases: Hexa-His-fusion enzyme, 1 μM ATP); read-out: IC50
Sequence (P35916 798-1298 isoform P35916-1): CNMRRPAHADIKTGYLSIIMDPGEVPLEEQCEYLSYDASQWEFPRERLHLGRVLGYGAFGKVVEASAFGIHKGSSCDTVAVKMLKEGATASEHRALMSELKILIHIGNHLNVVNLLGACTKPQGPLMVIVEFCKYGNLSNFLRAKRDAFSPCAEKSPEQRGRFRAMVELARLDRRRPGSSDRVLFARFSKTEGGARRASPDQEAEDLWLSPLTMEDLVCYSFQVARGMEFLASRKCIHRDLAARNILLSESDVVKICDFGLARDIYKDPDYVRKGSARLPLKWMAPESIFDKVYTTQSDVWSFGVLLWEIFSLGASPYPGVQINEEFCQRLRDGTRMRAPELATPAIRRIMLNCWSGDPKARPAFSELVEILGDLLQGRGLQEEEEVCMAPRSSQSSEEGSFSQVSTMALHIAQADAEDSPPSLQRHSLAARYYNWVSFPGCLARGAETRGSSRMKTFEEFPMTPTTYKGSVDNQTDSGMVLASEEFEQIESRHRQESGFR
pIC50: −log10 of the molar value.
Binary classification by pIC50, with 7 as an inclusive lower bound for fulfilled; all other cases are not fulfilled.

NC(=O)C1(c2ccccc2CCc2nc(Nc3cn[nH]c3)ncc2Cl)CC1 [Compound 19] | fulfilled
CC(C(N)=O)c1ccccc1CCc1nc(Nc2ccc(C3CCN(C)CC3)nc2)ncc1C(F)(F)F (centres unmarked) [Compound 63] | fulfilled
Cc1cnc(Nc2cnn(C)c2)nc1CCc1ccccc1C(C)C(N)=O (single isomer, unassigned) [Compound 51-1A] | fulfilled
CC(C(N)=O)c1ccccc1CCc1nc(Nc2cn[nH]c2)ncc1Cl (centres unmarked) [Compound 35] | fulfilled
NC(=O)C1(c2ccccc2CCc2nc(Nc3ncco3)ncc2Cl)CC1 [Compound 11] | not fulfilled
N#Cc1ccc(Nc2ncc(Cl)c(CCc3ccccc3C3(C(N)=O)CC3)n2)cn1 [Compound 31] | fulfilled

## Task Entry Cn1ccc(Nc2ncc(Cl)c(CCc3ccccc3C3(C(N)=O)CC3)n2)n1 [Compound 28] : is its pIC50 no less than 7?
## Result not fulfilled
